tested on: U251 CNS; test: NCI-60 one-dose screen, 48 h (100 = growth as untreated, 0 = no growth, -100 = all killed); details: 10 µM unless noted
Compounds without any hit were thinned out: in the full panel of roughly 83,000, 20% have a hit.
Use y when the recorded growth is no lower than 90%; use n when it is lower.

In: Please indicate if the recorded growth for CC1CC=CCC12C(=O)NC(=S)NC2=O (stereo not given) meets or exceeds 90%.
Out: y

In: Please indicate if the recorded growth for CCC(/C=C(C)/C=C/C(=O)c1c(O)c(-c2ccc(O)cc2)c[nH]c1=O)CO (stereo not given) meets or exceeds 90%.
Out: n

In: Please indicate if the recorded growth for CC(C)C1c2ccc(O)cc2Oc2nc(N)c(C#N)c(N)c21 (stereo not given) meets or exceeds 90%.
Out: y

In: Please indicate if the recorded growth for N#CC1=C(N)Oc2cc3c(cc2C1c1cccs1)OCO3 (stereo not given) meets or exceeds 90%.
Out: n

In: Please indicate if the recorded growth for COc1cc(C2(C#N)CCN(C)CC2)cc(OC)c1OC meets or exceeds 90%.
Out: y

In: Please indicate if the recorded growth for C[C@]12CC[C@@H]3C4=C(CC[C@H]3[C@@H]1CC[C@@H]2O)CC(=O)CC4 meets or exceeds 90%.
Out: y

In: Please indicate if the recorded growth for Oc1ccc(O)c2c1C1(Cl)C(Cl)=C(Cl)C2(Cl)C1(Cl)Cl meets or exceeds 90%.
Out: n

In: Please indicate if the recorded growth for O=C1NC(=S)NC(=O)C1=Cc1ccccc1 meets or exceeds 90%.
Out: y

In: Please indicate if the recorded growth for O=[N+]([O-])c1cccc([As]=[As]c2cccc([N+](=O)[O-])c2)c1 (stereo not given) meets or exceeds 90%.
Out: n

In: Please indicate if the recorded growth for O=C(O)c1cccc(CCl)c1 meets or exceeds 90%.
Out: y

In: Please indicate if the recorded growth for CC(=O)O[C@H]1CCC2(C)C(=CCC3C2CCC2(C)/C(=N/OC(=O)c4ccc(N(CCCl)CCCl)cc4)CCC32)C1 (stereo not given in full) meets or exceeds 90%.
Out: n

In: Please indicate if the recorded growth for ClCCN(CCCl)C(c1ccccc1)c1ccc(Cl)cc1 (stereo not given) meets or exceeds 90%.
Out: n

In: Please indicate if the recorded growth for N#Cc1ncc(/N=C/c2ccc(N(CCCl)CCCl)cc2)s1 meets or exceeds 90%.
Out: n

In: Please indicate if the recorded growth for CC[C@@H](C)/C=C(C)/C=C/C(=O)c1c(O)c(-c2ccc(O)cc2)cn(O)c1=O meets or exceeds 90%.
Out: n

In: Please indicate if the recorded growth for COc1cc(/C=C\c2cc(OC)c(OC)c(OC)c2)cc(N/C=C\C(=O)c2ccc(OC(F)(F)F)cc2)c1OC meets or exceeds 90%.
Out: n

In: Please indicate if the recorded growth for CC(=O)C1C(=O)N(C)C(=O)N(C)C1=O meets or exceeds 90%.
Out: y

In: Please indicate if the recorded growth for COc1cc2c(cc1OC)CN(C)C(C)C2 (stereo not given) meets or exceeds 90%.
Out: y

In: Please indicate if the recorded growth for O=CN1N=C(c2ccc3c(c2)OCO3)CC1c1sc(N(CCCl)CCCl)nc1Cl (stereo not given) meets or exceeds 90%.
Out: y

In: Please indicate if the recorded growth for CCCCCCCC(=O)OCC/C=C/C1OC1C1OC(=O)/C=C\C=C\c2nc(oc2C)/C=C(/C)CCC2OC2C1OC(=O)NC(C)=O (stereo not given) meets or exceeds 90%.
Out: n

In: Please indicate if the recorded growth for CC(C)Nc1ccc(Nc2ccccc2)cc1 meets or exceeds 90%.
Out: n

# credit: PubChem BioAssay (NCI)
